Could you please report measured pIC50 for the items listed next?
Target: HCV NS5B genotype 1b (Con1) (Hepatitis C virus genotype 1b, UniProt Q9WMX2)
Construct: Each untagged protein was expressed with an 18 amino acid C-terminal truncation to enhance the solubility; made in house; host or cells: E. coli BL21(DE3), pET21a
Sequence (Q9WMX2 2420-2992): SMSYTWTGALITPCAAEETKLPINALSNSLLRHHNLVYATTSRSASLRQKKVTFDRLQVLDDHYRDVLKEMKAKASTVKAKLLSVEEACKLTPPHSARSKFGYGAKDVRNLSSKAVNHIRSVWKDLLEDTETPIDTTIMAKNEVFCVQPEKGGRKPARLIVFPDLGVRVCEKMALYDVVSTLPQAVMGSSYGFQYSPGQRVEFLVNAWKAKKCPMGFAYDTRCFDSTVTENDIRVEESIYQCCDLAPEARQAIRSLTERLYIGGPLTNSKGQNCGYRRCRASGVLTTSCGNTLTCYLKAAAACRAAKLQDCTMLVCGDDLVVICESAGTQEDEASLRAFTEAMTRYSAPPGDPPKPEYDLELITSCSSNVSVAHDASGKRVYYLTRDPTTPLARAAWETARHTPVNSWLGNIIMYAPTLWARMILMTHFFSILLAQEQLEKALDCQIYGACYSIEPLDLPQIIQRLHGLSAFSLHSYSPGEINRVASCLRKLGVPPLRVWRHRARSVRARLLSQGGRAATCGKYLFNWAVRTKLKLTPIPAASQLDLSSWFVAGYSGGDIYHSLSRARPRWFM
Test: HCV NS5B RdRp enzyme assay
Format: biochemical
Conditions: 1b enzyme, 24 hours at 30° C.
Procedure: The cDNA encoding NS5B proteins of HCV genotype 1b (Con1), a genotype 1b variant with amino acid 316 mutated from cysteine to asparagine, and genotype 2a (JFH-1), were cloned into the pET21a expression vector. […] Reactions were allowed to proceed for 24 hours at 30° C. and terminated by the addition of 50 mM EDTA (5 μL). After incubating for at least 15 minutes, plates were read on an Amersham LEADseeker multimodality imaging system. IC50 values for compounds were determined using ten different [I]. […]
pIC50 here: minus log base 10 of the concentration, concentration in moles per litre.

Query :: Entry under review: CCC(C)c1cc2oc(-c3ccc(F)cc3)c(C(=O)NC)c2cc1-c1cccc(C(=O)NC23CC(C2)C3)c1 (stereo not shown) [drawing 294] . Reported pIC50?
Result :: 8.00

Query :: Entry under review: `CNC(=O)c1c(-c2ccc(F)cc2)oc2nc(CCC(F)(F)F)c(-c3cccc(C(=O)NC45CC(C4)C5)c3)cc12` . Reported pIC50?
Result :: 8.23

Query :: Entry under review: `CNC(=O)c1c(-c2ccc(F)cc2)oc2nc(NCC(F)(F)F)c(-c3cnc(OC)c(C(=O)NC45CC(C4)C5)c3)cc12` . Reported pIC50?
Result :: 8.18

Query :: Entry under review: `CNC(=O)c1c(-c2ccc(F)cc2)oc2nc(NCC(F)F)c(-c3ccc(F)c(C(=O)NC45CC(C4)C5)c3)cc12` . Reported pIC50?
Result :: 8.21

Query :: Entry under review: `CNC(=O)c1c(-c2ccc(F)cc2)oc2cc(NCC(F)(F)F)c(-c3ccc(OC)c(C(=O)NC45CC(C4)C5)c3)cc12` . Reported pIC50?
Result :: 8.14

Query :: Entry under review: `CNC(=O)c1c(-c2ccc(F)cc2)oc2nc(CCC(F)(F)F)c(-c3ccc(OC)c(C(=O)NC45CC(C4)C5)c3)cc12` . Reported pIC50?
Result :: 8.00

Query :: Entry under review: `CNC(=O)c1c(-c2ccc(F)cc2)oc2cc(CCNS(C)(=O)=O)c(-c3cccc(C(=O)NC45CC(C4)C5)c3)cc12` . Reported pIC50?
Result :: 8.00

Query :: Entry under review: `CNC(=O)c1c(-c2ccc(F)cc2)oc2nc(NCC(F)(F)F)c(-c3ccc(F)c(C(=O)NC45CC(C4)C5)c3)cc12` . Reported pIC50?
Result :: 8.04

Query :: Entry under review: `CNC(=O)c1c(-c2ccc(F)cc2)oc2nc(CCC(F)(F)F)c(-c3ccc(F)c(C(=O)NC45CC(C4)C5)c3)cc12` . Reported pIC50?
Result :: 8.03

Query :: Entry under review: `CNC(=O)c1c(-c2ccc(F)cc2)oc2cc(CCCO)c(-c3cccc(C(=O)NC45CC(C4)C5)c3)cc12` . Reported pIC50?
Result :: 8.02
